Cited source for all entries: patent US10189841B2

Answer each item with its documented IC50.
Molecular target: USP1 (construct USP1 (I-785, GG670, 671AA)/UAF1 (I-677)-Flag) (Homo sapiens (Human), UniProt O94782, G670A/G671A)
Sequence (O94782 whole entry G670A/G671A): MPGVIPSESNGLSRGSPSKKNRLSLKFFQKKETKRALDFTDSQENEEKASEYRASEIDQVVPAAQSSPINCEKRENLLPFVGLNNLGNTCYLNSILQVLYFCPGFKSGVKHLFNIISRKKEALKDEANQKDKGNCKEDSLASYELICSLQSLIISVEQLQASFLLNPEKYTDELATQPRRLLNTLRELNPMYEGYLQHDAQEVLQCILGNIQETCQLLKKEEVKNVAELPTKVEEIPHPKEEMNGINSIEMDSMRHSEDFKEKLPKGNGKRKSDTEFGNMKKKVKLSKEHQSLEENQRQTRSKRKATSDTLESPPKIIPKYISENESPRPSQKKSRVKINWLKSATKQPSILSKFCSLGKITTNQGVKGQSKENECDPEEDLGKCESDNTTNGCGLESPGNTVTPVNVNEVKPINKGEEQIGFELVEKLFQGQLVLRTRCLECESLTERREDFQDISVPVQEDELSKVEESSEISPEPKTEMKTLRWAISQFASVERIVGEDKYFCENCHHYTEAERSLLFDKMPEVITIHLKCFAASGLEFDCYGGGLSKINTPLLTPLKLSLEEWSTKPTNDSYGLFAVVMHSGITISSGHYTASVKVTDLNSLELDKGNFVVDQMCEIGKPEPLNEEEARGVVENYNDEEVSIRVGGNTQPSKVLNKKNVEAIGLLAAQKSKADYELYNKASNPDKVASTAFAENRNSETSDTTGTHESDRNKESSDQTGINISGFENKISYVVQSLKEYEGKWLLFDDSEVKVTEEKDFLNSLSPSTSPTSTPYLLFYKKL
Sequence (Q8TAF3 whole entry partner): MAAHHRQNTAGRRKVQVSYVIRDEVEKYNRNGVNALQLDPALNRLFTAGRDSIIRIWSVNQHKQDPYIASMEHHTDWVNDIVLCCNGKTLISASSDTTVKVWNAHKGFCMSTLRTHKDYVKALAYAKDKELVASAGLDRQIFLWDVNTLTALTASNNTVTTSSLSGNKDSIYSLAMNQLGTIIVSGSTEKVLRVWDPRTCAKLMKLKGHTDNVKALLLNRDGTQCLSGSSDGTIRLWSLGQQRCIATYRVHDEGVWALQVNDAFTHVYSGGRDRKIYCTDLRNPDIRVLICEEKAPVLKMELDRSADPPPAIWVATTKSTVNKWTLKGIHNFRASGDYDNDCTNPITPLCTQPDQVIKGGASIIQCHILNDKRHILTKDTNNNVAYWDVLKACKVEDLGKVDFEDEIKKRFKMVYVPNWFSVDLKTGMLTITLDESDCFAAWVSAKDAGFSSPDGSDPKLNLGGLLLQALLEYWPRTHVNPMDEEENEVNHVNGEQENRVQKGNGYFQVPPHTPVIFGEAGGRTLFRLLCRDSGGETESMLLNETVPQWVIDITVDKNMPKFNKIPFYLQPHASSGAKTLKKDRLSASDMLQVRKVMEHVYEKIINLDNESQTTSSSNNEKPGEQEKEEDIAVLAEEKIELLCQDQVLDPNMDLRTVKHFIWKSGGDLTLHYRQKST
Assay: Ubiquitin-Rhodamine 110 assay for USP1 activity
Settings: USP1/UAF1 25 pM, Ub-Rh110 25 nM, 30 min preincubation

Reported IC50 ( CC(C)c1ncccc1-c1ncc2c(n1)n(Cc1ccc(-c3nc(C(F)(F)F)cn3C)cc1)c(=O)n2C1COC1 [Compound I-119] ) = 50 to 200 nM

Lookup result for CC(C)c1ccccc1-c1ncc2[nH]c(=O)n(Cc3ccc(-c4cccc(CCN(C)C)c4)cc3)c2n1 [Compound I-248] ; measured IC50: 200 to 2000 nM

Documented IC50 of Cn1cc(C(F)(F)F)nc1-c1ccc(Cn2c(=O)n(C)c3cnc(-c4cccnc4OCC(F)(F)F)nc32)cc1 [Compound I-50] : < 50 nM

Looking up Cn1cc(C(F)(F)F)nc1-c1ccc(Cn2c(=O)n(C3CC3)c3cnc(-c4cccnc4C4CC4)nc32)cc1 [Compound I-101] , I see its IC50 listed as < 50 nM

IC50 recorded for this molecule, CC(C)c1ccccc1-c1ncc2c(n1)n(Cc1ccc(-c3cc(N4CCOCC4)ncn3)cc1)c(=O)n2C [Compound I-263] , is 200 to 2000 nM

IC50 recorded for this molecule, CC(C)c1ncccc1-c1ncc2c(n1)n(Cc1ccc(-c3nc(C(F)(F)F)cn3C)cc1)c(=O)n2CCO [Compound I-123] , is 50 to 200 nM

The molecule identified as Cc1cc(C)n([C@H]2CC[C@H](Cn3c(=O)[nH]c4cnc(-c5ccccc5C(C)C)nc43)CC2)n1 [Compound I-213] registered its IC50 at 200 to 2000 nM

Summary for this molecule, CC(C)c1ccccc1-c1ncc2[nH]c(=O)n([C@@H](C)c3ccccc3)c2n1 [Compound I-156] : IC50 is > 2000 nM

CC(=O)N1CC(n2cc(C(F)(F)F)nc2-c2ccc(Cn3c(=O)[nH]c4cnc(-c5cccnc5C(C)C)nc43)cc2)C1 [Compound I-477] has a reported IC50 of < 50 nM

Entry CC(C)c1ccccc1-c1ncc2[nH]c(=O)n(Cc3ccc(C(=O)N4CCCC45COC5)cc3)c2n1 [Compound I-411] — recorded IC50 = < 50 nM

Lab note: measured IC50 of COCCN(C)C(=O)c1ccc(Cn2c(=O)[nH]c3cnc(-c4ccccc4C(C)C)nc32)cc1 [Compound I-407] was 50 to 200 nM

response.value for CC(C)c1ccccc1-c1ncc2[nH]c(=O)n(Cc3cnc(-n4cccn4)cn3)c2n1 [Compound I-508] (field: IC50) = > 2000 nM

Lab note: Cc1noc(C)c1-c1ccc(Cn2c(=O)[nH]c3cnc(-c4ccccc4C(C)C)nc32)cc1 [Compound I-253] gave IC50 of 200 to 2000 nM

Just so you know, measured IC50 for CC(C)c1ccccc1-c1ncc2[nH]c(=O)n(Cc3ccc(-c4cnn(C)c4CC(=O)O)cc3)c2n1 [Compound I-254] came out at > 2000 nM
